biological target: NACHT, LRR and PYD domains-containing protein 3 (Homo sapiens, UniProt Q96P20)
Sequence (Q96P20 whole entry, the tested form may be a part): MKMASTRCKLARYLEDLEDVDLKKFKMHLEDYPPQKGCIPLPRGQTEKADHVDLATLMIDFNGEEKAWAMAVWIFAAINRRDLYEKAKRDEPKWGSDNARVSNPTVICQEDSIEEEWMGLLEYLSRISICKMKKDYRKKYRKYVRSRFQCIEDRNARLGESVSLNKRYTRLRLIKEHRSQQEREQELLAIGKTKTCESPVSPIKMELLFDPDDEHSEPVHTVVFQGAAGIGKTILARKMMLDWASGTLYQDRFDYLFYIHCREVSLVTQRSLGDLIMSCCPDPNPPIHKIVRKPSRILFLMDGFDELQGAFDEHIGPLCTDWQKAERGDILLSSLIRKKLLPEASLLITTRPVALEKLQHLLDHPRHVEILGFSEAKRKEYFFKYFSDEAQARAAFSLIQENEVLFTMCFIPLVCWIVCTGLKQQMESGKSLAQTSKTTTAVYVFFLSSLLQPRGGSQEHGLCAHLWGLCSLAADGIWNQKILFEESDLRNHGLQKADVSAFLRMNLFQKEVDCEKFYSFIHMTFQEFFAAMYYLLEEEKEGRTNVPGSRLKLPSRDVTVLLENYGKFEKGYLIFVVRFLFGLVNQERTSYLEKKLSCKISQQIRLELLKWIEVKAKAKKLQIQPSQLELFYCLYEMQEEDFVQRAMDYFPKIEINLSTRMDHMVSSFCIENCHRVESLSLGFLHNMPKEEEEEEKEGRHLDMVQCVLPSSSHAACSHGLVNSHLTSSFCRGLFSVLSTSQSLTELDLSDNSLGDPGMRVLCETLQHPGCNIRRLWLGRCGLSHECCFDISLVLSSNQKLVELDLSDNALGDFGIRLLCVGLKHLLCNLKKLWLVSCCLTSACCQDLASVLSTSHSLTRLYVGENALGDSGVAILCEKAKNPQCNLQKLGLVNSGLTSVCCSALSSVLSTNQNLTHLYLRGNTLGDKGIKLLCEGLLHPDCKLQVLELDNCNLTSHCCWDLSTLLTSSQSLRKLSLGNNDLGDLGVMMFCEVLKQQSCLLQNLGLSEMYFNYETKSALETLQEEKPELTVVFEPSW

>  <COMPOUND>
O=C(NCCCc1ccccc1)c1c(O)n2ccsc2nc1=O

>  <IC50, µM>
9.61

$$$$
>  <COMPOUND>
Cc1csc2nc(=O)c(C(=O)NCCC3=CCCCC3)c(O)n12

>  <IC50, µM>
4.07

$$$$
>  <COMPOUND>
CCCCCC(=O)N1CCN(CCNC=C2C(=O)CC(c3ccco3)CC2=O)CC1 (stereo unspecified)

>  <IC50, µM>
7.3

$$$$
>  <COMPOUND>
C=CCc1c(C)nc(C)nc1N=NCc1ccccc1O

>  <IC50, µM>
45.5

$$$$
>  <COMPOUND>
O=C1C=CC(/N=N/c2ccc([N+](=O)[O-])cc2Cl)=CC1C(=O)Nc1cccc(Cl)c1 (stereo unspecified)

>  <IC50, µM>
1.34

$$$$
>  <COMPOUND>
O=C(NCCC1=CCCCC1)c1c(O)n2ccsc2nc1=O

>  <IC50, µM>
3.8

$$$$

Sourced from BindingDB's records for doi:10.7270/Q2WD3Z10
